This collection of values is drawn from patent US11319315B2.

- subject_of_test: human LPA1 (Homo sapiens, UniProt Q92633)
- Construct: expressed in transfected cells; host or cells: Chinese hamster ovary (CHO) cells
- Sequence (Q92633 whole entry): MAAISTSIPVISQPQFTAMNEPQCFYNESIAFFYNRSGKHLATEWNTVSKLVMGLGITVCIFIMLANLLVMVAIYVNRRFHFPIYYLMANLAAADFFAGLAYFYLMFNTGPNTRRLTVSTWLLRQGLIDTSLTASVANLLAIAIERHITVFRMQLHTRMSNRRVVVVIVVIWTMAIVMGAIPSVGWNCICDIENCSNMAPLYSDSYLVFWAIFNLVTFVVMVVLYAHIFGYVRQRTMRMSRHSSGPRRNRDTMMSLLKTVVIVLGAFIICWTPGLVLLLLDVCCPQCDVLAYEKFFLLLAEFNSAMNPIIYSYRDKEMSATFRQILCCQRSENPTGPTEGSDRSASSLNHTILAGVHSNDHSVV
- test_description: LPA1 functional antagonist assay (LPA-induced calcium flux in CHO cells overexpressing human LPA1)
- Format: cell-based
- settings: inhibition of calcium flux induced by 10 nM LPA, CHO cells overexpressing human LPA1; read-out: hLPA1 IC50
pIC50: −log10 of the molar value.
observed_property: pIC50

>  <molecule>
CSc1nnnn1Cc1c(-c2ccc(O[C@H]3CCC[C@H](C(=O)O)C3)c(C)n2)nnn1C [Example 352]

>  <recorded_measurement>
6.24

$$$$
>  <molecule>
CCCc1nsc(NCc2c(-c3ccc(O[C@H]4CCC[C@H](C(=O)O)C4)c(C)n3)nnn2C)n1 [Example 104]

>  <recorded_measurement>
6.96

$$$$
>  <molecule>
Cc1nc(-c2nnn(C)c2Cc2nc(COC(C)C)no2)ccc1O[C@H]1CCC[C@H](C(=O)O)C1 [Example 248]

>  <recorded_measurement>
7.21

$$$$
>  <molecule>
Cc1nc(-c2nnn(C)c2CNc2noc(C(C)OC3CC3)n2)ccc1O[C@H]1CCC[C@H](C(=O)O)C1 (mixture of isomers) [Example 226]

>  <recorded_measurement>
6.91

$$$$
>  <molecule>
Cc1nc(-c2nnn(C)c2Cn2nnc(OC3CCCC3)n2)ccc1O[C@H]1CCC[C@H](C(=O)O)C1 [Example 336]

>  <recorded_measurement>
7.17

$$$$
>  <molecule>
CCc1nc(-c2nnn(C)c2Cn2cc(Cc3ccccc3)nn2)ccc1O[C@H]1CCC[C@H](C(=O)O)C1 [Example 95]

>  <recorded_measurement>
8.15

$$$$
>  <molecule>
Cc1nc(-c2nnn(C)c2Cn2nnnc2-c2ccccc2)ccc1O[C@H]1CCC[C@H](C(=O)O)C1 [Example 108]

>  <recorded_measurement>
6.62

$$$$

====

Below, each entry is listed alongside its reported IC50.
- subject_of_test: human LPA1 (Homo sapiens, UniProt Q92633)
- Construct: expressed in transfected cells; host or cells: Chinese hamster ovary (CHO) cells
- test_description: LPA1 functional antagonist assay (LPA-induced calcium flux in CHO cells overexpressing human LPA1)
- Assay type: cell-based
- settings: inhibition of calcium flux induced by 10 nM LPA, CHO cells overexpressing human LPA1; read-out: hLPA1 IC50
- Experimental: The effectiveness of compounds of the present invention as LPA1 inhibitors can be determined in an LPA1 functional antagonist assay as follows: Chinese hamster ovary cells overexpressing human LPA1 were plated overnight (15,000 cells/well) in poly-D-lysine coated 384-well microplates (Greiner bio-one, Cat #781946) in DMEM/F12 medium (Gibco, Cat #11039). […] IC50 values were determined by fitting data to a 4-parameter logistic equation (GraphPad Prism, San Diego Calif.).

>  <smiles_representation>
Cc1nc(-c2nnn(C)c2Cn2nnc(OC3CCCC3)n2)ccc1O[C@H]1CCC[C@@H](C(=O)O)C1

>  <subject_of_test>
human LPA1 (Homo sapiens, UniProt Q92633)

>  <IC50 / nM>
546

$$$$
>  <smiles_representation>
Cc1nc(-c2nnn(C)c2CNc2nc(C(C)C)cs2)ccc1O[C@H]1CCC[C@H](C(=O)O)C1

>  <subject_of_test>
human LPA1 (Homo sapiens, UniProt Q92633)

>  <IC50 / nM>
745

$$$$
>  <smiles_representation>
Cc1nc(-c2nnn(C)c2CNc2nc(C3CCCC3)ns2)ccc1O[C@H]1CCC[C@H](C(=O)O)C1

>  <subject_of_test>
human LPA1 (Homo sapiens, UniProt Q92633)

>  <IC50 / nM>
77

$$$$
>  <smiles_representation>
Cc1nc(-c2nnn(C)c2Cc2noc(C(C)C)n2)ccc1O[C@H]1CCC[C@H](C(=O)O)C1

>  <subject_of_test>
human LPA1 (Homo sapiens, UniProt Q92633)

>  <IC50 / nM>
95

$$$$
>  <smiles_representation>
CCCCc1cn(Cc2c(-c3ccc(O[C@H]4CCC[C@H](C(=O)O)C4)c(CC)n3)nnn2C)nn1

>  <subject_of_test>
human LPA1 (Homo sapiens, UniProt Q92633)

>  <IC50 / nM>
9

$$$$
>  <smiles_representation>
CCOCc1nc(NCc2c(-c3ccc(O[C@H]4CCC[C@H](C(=O)O)C4)c(C)n3)nnn2C)no1

>  <subject_of_test>
human LPA1 (Homo sapiens, UniProt Q92633)

>  <IC50 / nM>
45

$$$$
>  <smiles_representation>
Cc1nc(-c2nnn(C)c2Cn2nnc(C3CCOCC3)n2)ccc1O[C@H]1CCC[C@H](C(=O)O)C1

>  <subject_of_test>
human LPA1 (Homo sapiens, UniProt Q92633)

>  <IC50 / nM>
714

$$$$
